Source: patent US6586475B1

melting point values by entry

Below are worked cases with known answers.
> print(dat)
                        structure.as.smiles  experimental.result
1  CCCN(CCC)CCc1cccc(OCc2ccc3ccccc3c2)c1.Cl        115 to 116 °C
2    CCCN(CCC)CCc1ccccc1OCc1ccc2ccccc2c1.Cl        146 to 147 °C
3  CCCN(CCC)CCc1cccc(OCc2ccc(Cl)cc2Cl)c1.Cl          76 to 78 °C

# input molecule: CCCN(CCC)CCc1cccc(OCc2cccc3ccccc23)c1.Cl ; wanted: its melting point 140 to 142 °C

# input molecule: CCCN(CCC)CCc1ccc(OCc2ccc(Cl)cc2Cl)cc1.Cl ; wanted: its melting point 122 to 123 °C

###

melting point values by entry

Below are worked cases with known answers.
> print(dat)
                        structure.as.smiles  measurement.label   experimental.result
1  CCCN(CCC)CCc1ccc(OCc2ccc(-c3ccccc3)cc2)cc1.Cl      melting point         149 to 150 °C
2  CCCN(CCC)CCc1cccc(OCc2ccc(-c3ccccc3)cc2)c1.Cl      melting point         108 to 110 °C
3  O=C(NCCN1CCCC1)c1ccc(NC(=O)c2ccc(-c3ccccc3)cc2)cc1      melting point  241 to 245 °C (dec.)
4  O=C(NCCN1CCCCC1)c1ccc(NC(=O)c2ccc(-c3ccccc3)cc2)cc1      melting point  247 to 252 °C (dec.)

# input compound: CCCN(CCC)CCc1ccc(OCc2ccc3ccccc3c2)cc1.Cl ; wanted: its melting point 113 to 115 °C
